# experimental-system: T1, human glucagon receptor (human, UniProt P47871 26-477)
# T1 construct: whole, on cells; reporter assay on whole cells
# T1 sequence (P47871 26-477): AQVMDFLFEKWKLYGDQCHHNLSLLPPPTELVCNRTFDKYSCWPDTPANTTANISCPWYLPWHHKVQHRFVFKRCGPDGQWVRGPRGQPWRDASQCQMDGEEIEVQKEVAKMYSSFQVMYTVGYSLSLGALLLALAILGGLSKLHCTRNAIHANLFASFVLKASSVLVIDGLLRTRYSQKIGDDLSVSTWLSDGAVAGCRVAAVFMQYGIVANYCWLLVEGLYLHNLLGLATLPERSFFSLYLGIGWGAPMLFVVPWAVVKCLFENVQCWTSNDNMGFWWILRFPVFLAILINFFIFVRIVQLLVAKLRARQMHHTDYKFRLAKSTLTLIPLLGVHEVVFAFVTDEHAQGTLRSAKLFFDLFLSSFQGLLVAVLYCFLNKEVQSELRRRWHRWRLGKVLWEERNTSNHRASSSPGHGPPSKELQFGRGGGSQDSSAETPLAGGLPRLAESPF
# procedure-text: SPA displacement of [125I]-glucagon from human glucagon receptor BHK membranes
*1 amine or outer side, *2 acyl side, *3 side chain or, on linkers, in order; H or OH if unused. Where no end group is shown, it is not given here. Side-chain parts run from the residue outwards. [ ]: non-standard residue; d: D form. The star is where a group is joined. C18 diacid = O=C(O)CCCCCCCCCCCCCCCCC(=O)*; C16 diacid = O=C(O)CCCCCCCCCCCCCCC(=O)*; γGlu = O=C(O)[C@H](CCC(=O)[*:2])N[*:1]; Desaminohistidyl = O=C(CCc1c[nH]cn1)*; AEEA = NCCOCCOCC(=O)O; Aib = CC(C)(N)C(=O)O
metric-name: pIC50
pIC50 (log units): -log10 of the concentration in mol/L.

Below: 5 binders and their reported pIC50.
>>> data_value("XXHGTFTSDYSRYLEGRAAREFIAWLLRK (Imp (desamino-His) at 7; Acb at 8; Lys35 N-epsilon acylated with 17-carboxyheptadecanoyl-γGlu-γGlu-Ado-γGlu-Ado-γGlu-Ado-γGlu-; C-terminal amide (GLP-1(7-37) numbering))")
7.44
>>> data_value("XXHGTFTSDYSKYLERRAAREFIAWLLKK (Imp (desamino-His) at 7; Acb at 8; Lys35 N-epsilon acylated with 17-carboxyheptadecanoyl-γGlu-γGlu-Ado-γGlu-Ado-γGlu-Ado-γGlu-; C-terminal amide (GLP-1(7-37) numbering))")
8.07
>>> data_value("[Desaminohistidyl][Aib]HGTFTSDYSKYLEEQAAREFIAWLLKGK([Gly-Ser-Glu-Gly-Ser-γGlu-γGlu-C18 diacid])G")
7.51
>>> data_value("[Desaminohistidyl][Aib]HGTFTSDVSKYLEEQAAREFIAWLLK([Ado-Ado-γGlu-γGlu-C16 diacid])T-NH2")
8.40
>>> data_value("[Desaminohistidyl][Aib]HGTFTSDLSKYLEEQAAREFIAWLLK([Ado-Ado-γGlu-γGlu-C18 diacid])T-NH2")
8.29

**Q:** Complete the entry with pIC50 for [Desaminohistidyl][Aib]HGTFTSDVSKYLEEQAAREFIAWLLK([Ado-Ado-γGlu-γGlu-γGlu-C18 diacid])T (Named as peptide, not peptide amide (C-terminal acid))
**A:** 7.55

**Q:** Complete the entry with pIC50 for [Desaminohistidyl][Aib]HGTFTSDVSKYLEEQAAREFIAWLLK([Gly-Ser-Glu-Gly-Ser-γGlu-γGlu-C18 diacid])T (Named as peptide, not peptide amide (C-terminal acid))
**A:** 7.73

**Q:** Complete the entry with pIC50 for XXHGTFTSDYSKYLEEQAAREFIAWLLKK (Imp (desamino-His) at 7; Acb at 8; Lys35 N-epsilon acylated with 17-carboxyheptadecanoyl-γGlu-γGlu-Ado-γGlu-Ado-γGlu-Ado-γGlu-; C-terminal amide (GLP-1(7-37) numbering))
**A:** 8.16

**Q:** Complete the entry with pIC50 for [Desaminohistidyl][Aib]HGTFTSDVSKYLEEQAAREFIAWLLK([γGlu-γGlu-Ser-Gly-Glu-Ser-Gly-C18 diacid])T (Named as peptide, not peptide amide (C-terminal acid))
**A:** 7.92

**Q:** Complete the entry with pIC50 for [Desaminohistidyl]AHGTFTSDVSRYLEEQAARK([AEEA-AEEA-γGlu-γGlu-γGlu-C18 diacid])FIAWLLR
**A:** 6.90
